Reference for the values: patent US4826984A

System: ornithine decarboxylase (ODC)
Assay: suppression of TPA induced ornithine decarboxylase (ODC) in mouse skin
Assay type: in vivo
Settings: 34 nmol retinoid + TPA; third experiment (standard trans-retinoic acid)
Catalogue of % of Inhibition as Compared to Control readings, one per entry.
Response body: numeric value in %, unit text excluded.

Example entries and their recorded answers appear below.
Any idea what its % of Inhibition as Compared to Control is? The compound is C/C(=C\c1ccc(C=O)cc1)c1ccc2c(c1)C(C)(C)CCO2 34

Any idea what its % of Inhibition as Compared to Control is? The compound is C/C(=C\c1ccc(CO)cc1)c1ccc2c(c1)C(C)(C)CCO2 68

Any idea what its % of Inhibition as Compared to Control is? The compound is CC1=C(/C=C/C(C)=C/C=C/C(C)=C/C(=O)O)C(C)(C)CCC1 [trans-retinoic acid, all trans-retinoic acid, reference compound] 81

Next compound, % of Inhibition as Compared to Control to be filled in.
Any idea what its % of Inhibition as Compared to Control is? The compound is COC(=O)c1ccc(/C=C(\C)c2ccc3c(c2)C(C)(C)CO3)cc1 72
